Catalogue of inhibition values
Biological target: Rac GTPase-activating protein 1 (Homo sapiens)
Assay: blockers of MgcRacGAP-driven Rac1 GTP hydrolysis – biochemical, ADP Hunter fluorescence, primary and confirmatory, confirmation (AID 624330);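 further: fluorescence reports GDP produced by GAP-driven GTP hydrolysis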
Details: MgcRacGAP-stimulated Rac1 GTP hydrolysis, at 30 µM, stronger effect = higher value, GST-tagged Rac1 F28L mutant substrate
Hit rate of the full screen: of about 340,000 compounds, about 2,100 (0.62%) were called active. A selection follows. Measured potencies and affinities stand elsewhere.
Your answer should be a plain number; it is taken to be in %.

So for COc1ccc2c(c1)C(c1ccc(C)o1)=NNC(c1ccccc1)=N2 , the logged inhibition turned out to be 2.46

So for CN1CCN(S(=O)(=O)c2ccc(Oc3cccc(C(F)(F)F)c3)nc2)CC1 , the logged inhibition turned out to be 9.66

So for COc1cccc(N=Cc2ccc(O)cc2O)c1 , the logged inhibition turned out to be 8.51

So for COc1cccc(C(=O)Nc2cc3c(cc2N2CCOCC2)n(C)c(=O)n3C)c1 , the logged inhibition turned out to be -34.3

So for Cc1ccc(S(=O)(=O)N2CCN(CN3C(=O)CC4(CCCC4)C3=O)CC2)cc1 , the logged inhibition turned out to be 1.32

So for CCN(CC)C1CCN(C(=O)c2cc(COc3cccc4cccnc34)on2)C1 (stereo unspecified) , the logged inhibition turned out to be -5.07

So for Cc1ccc(O)c(/C=N/NC(=O)c2[nH]ncc2Br)c1 , the logged inhibition turned out to be 0.98

So for Brc1ccc2[nH]ncc2c1 , the logged inhibition turned out to be 3.94

So for CC1(C)CC(=O)C(C=Nc2ccc3[nH]ncc3c2)=C(O)C1 , the logged inhibition turned out to be 6.45

So for Cc1cc(C)n(C(=O)c2ccc(Cn3nc(C)c(Br)c3C)o2)n1 , the logged inhibition turned out to be 4.85

So for O=[N+]([O-])/C=C\c1ccc(N2CCOCC2)cc1 , the logged inhibition turned out to be 24

----------
Target: Rac GTPase-activating protein 1 (Homo sapiens) (UniProt Q9H0H5)
Sequence (Q9H0H5 whole entry, looked up): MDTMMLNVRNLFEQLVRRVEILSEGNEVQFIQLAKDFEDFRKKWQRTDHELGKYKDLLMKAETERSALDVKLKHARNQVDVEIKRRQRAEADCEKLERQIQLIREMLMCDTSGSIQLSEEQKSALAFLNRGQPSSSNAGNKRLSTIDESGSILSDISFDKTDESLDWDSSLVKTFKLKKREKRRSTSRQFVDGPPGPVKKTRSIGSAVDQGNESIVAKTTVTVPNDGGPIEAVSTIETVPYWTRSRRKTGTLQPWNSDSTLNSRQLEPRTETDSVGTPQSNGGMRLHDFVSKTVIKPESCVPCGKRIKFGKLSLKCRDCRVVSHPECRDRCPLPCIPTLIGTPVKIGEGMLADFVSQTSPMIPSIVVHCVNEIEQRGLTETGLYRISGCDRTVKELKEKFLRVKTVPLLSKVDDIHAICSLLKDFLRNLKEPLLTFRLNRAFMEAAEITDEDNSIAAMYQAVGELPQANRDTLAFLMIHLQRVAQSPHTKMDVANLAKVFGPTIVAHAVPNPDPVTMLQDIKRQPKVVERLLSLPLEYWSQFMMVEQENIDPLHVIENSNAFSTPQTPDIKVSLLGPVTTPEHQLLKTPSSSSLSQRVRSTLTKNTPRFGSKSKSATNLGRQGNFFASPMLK
Experiment: blockers of MgcRacGAP-driven Rac1 GTP hydrolysis – biochemical, ADP Hunter fluorescence, primary and confirmatory, confirmation (AID 624330);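 further: fluorescence reports GDP produced by GAP-driven GTP hydrolysis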
Conditions: MgcRacGAP-stimulated Rac1 GTP hydrolysis, at 30 µM, stronger effect = higher value, GST-tagged Rac1 F28L mutant substrate
Among all 340,000 compounds or so, about 2,100 (0.62%) were called active. Not all results are given here. Measured potencies and affinities stand elsewhere.
Catalogue of inhibition values
Your answer should be a plain number; it is taken to be in %.

As a guide, the following entries are already answered.
Nc1ccc2c(c1)Cc1cc([N+](=O)[O-])ccc1-2 | 14.4
Nc1c(N(CCO)C(=O)C2CCCC2)c(=O)[nH]c(=O)n1Cc1ccccc1 | 2.35
Cc1cccc(C(=O)OCC(=O)NC2CCCCCCC2)c1 | -0.77
CC(Oc1ccc(F)cc1)C(=O)N(Cc1ccccc1)c1c(N)n(Cc2ccccc2)c(=O)[nH]c1=O (stereo not given) | 3.15

So for Cc1ccc(OCC(=O)N2CCN(S(=O)(=O)c3ccccc3[N+](=O)[O-])CC2)cc1 , the logged inhibition turned out to be 5.54

----------
Catalogue of inhibition values
Target: Rac GTPase-activating protein 1 (Homo sapiens) (UniProt Q9H0H5)
Assay: blockers of MgcRacGAP-driven Rac1 GTP hydrolysis – biochemical, ADP Hunter fluorescence, primary and confirmatory, confirmation (AID 624330);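 further: fluorescence reports GDP produced by GAP-driven GTP hydrolysis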
Conditions: MgcRacGAP-stimulated Rac1 GTP hydrolysis, at 30 µM, stronger effect = higher value, GST-tagged Rac1 F28L mutant substrate
Among all 340,000 compounds or so, about 2,100 (0.62%) were called active. These entries were drawn from the full list. Measured potencies and affinities stand elsewhere.
Your answer should be a plain number; it is taken to be in %.

As a guide, the following entries are already answered.
Cc1ccc(S(=O)(=O)[N-]c2nc3ccccc3nc2-[n+]2cc(C)cc(C)c2)cc1 | 9.42
COc1ccc(/C=N/NC(=O)CNC(=O)C2COc3ccccc3O2)cc1OC (stereo not given) | 6.43
CCSc1nnc([C@H](Cc2c[nH]c3ccccc23)NC(=O)OC(C)(C)C)o1 | 5.34
COc1ccc(/C=N\NC(=O)CNC(=O)C2COc3ccccc3O2)cc1[N+](=O)[O-] (stereo not given) | 5.39

From here, focus on the item given below.
So for CN1CCC(=O)N([C@H](CSc2ccc(Br)cc2)Cc2ccccc2)CC1 , the logged inhibition turned out to be 1.09
